Target desc: T1, human EphA2 (human, UniProt P29317 25-534, limits assumed)
T1 construct: also called Eph receptor tyrosine kinase A2
T1 sequence (P29317 25-534 limits assumed): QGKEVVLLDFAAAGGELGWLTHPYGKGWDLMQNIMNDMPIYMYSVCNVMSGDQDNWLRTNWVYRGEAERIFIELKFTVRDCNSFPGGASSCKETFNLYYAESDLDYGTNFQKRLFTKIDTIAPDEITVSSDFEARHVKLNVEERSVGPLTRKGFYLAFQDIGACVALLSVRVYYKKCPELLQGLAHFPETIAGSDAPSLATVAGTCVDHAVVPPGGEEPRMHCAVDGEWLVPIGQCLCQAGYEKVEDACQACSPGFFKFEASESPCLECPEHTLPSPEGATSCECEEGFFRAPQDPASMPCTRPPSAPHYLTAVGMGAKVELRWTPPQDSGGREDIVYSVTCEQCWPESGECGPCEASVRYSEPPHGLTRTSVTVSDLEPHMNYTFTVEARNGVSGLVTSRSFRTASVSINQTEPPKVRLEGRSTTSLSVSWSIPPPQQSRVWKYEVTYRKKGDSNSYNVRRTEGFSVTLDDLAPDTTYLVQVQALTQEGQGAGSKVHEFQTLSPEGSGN
Test summary: fluorescence polarisation competition with tracer BCY90, human EphA2, mean of 6
Starred links: 1 amine or outer side, 2 acyl side, 3 side chain; linkers in the order of their positions; H or OH if unused. Positions of bridges follow the written chain, without caps; N, C: chain ends. Non-standard residues stand in square brackets, D forms with d. No end group written: not given here. TATA = O=C(CC[*:1])N1CN(C(=O)CC[*:2])CN(C(=O)CC[*:3])C1; Hyp = O=C(O)[C@@H]1C[C@@H](O)CN1; hArg = N=C(N)NCCCC[C@H](N)C(=O)O; Cysteamide = C(CS[*:3])N[*:1]; Cba = N[C@@H](CC1CCC1)C(=O)O
Endpoint label: Ki (nM)
Answers are plain numbers, in nM.

[[record]]
binder = "A[hArg]DC[Hyp][Cba]VNPLCLHP[dD]W[hArg]C-NH2 (linker 4-11-18 via TATA, Bicyclic peptide cyclised with TATA) [BCY12862]"
numeric_readout = 1.22


Your task in this section: give Ki for each listed record.
1. A[hArg]DC[Hyp]LVNPLCLHP[dD]W[hArg][Cysteamide] (linker (positions not given here) via TATA; not fully specified (bridges), Bicyclic peptide cyclised with TATA; the third reactive group is cysteamine in place of cysteine) [BCY13133]
2. ADC[Hyp]LVNPLCLEP[dD]WTC-NH2 (linker 3-10-17 via TATA, Bicyclic peptide cyclised with TATA) [BCY13128]

Solution:
[3.24, 16.1]

Where these numbers come from: patent US20220257784A1
